Data origin, for the record: PubChem BioAssay (EPA / NIEHS)

Read-out: Interleukin-8 (IL8), CXCL8 (gene 3576)
Assay: BSK_MyoF_IL8: BioMAP Diversity Plus: MyoF Assay for Interleukin-8 (IL8) Biomarker Activity (AID 2284261)
Details: primary human lung fibroblasts
Activity calls are given as the source filed them. Rule for the calls: active = hit-call score of the fitted dose curve at least 0.9, where 1 is the maximum; inactive = score below 0.9.
Classes used: active, inactive

INSERT INTO measurements (compound, category) VALUES
  ('Cc1cccc2c1ccc1ccccc12', 'inactive'),
  ('O=S(=O)(O)C(F)(F)C(F)(F)C(F)(F)C(F)(F)C(F)(F)C(F)(F)C(F)(F)C(F)(F)C(F)(F)C(F)(F)F', 'inactive'),
  ('CCCCCc1ccc(O)cc1', 'inactive'),
  ('Clc1ccc(Nc2nnc(Cc3ccncc3)c3ccccc23)cc1', 'inactive'),
  ('C=CC(C)(CCC=C(C)C)OC(C)=O (stereo unspecified)', 'inactive'),
  ('CC1=NN(c2ccccc2)C(=O)C1', 'inactive'),
  ('CCOC(=O)CN[C@@H](C(=O)N1CC[C@H]1C(=O)NCc1ccc(/C(N)=N/O)cc1)C1CCCCC1', 'inactive'),
  ('C[C@]12CC[C@@H]3c4ccc(O)cc4CC[C@H]3[C@@H]1C[C@@H](O)[C@@H]2O', 'inactive'),
  ('O=C(O)CCC(F)(F)C(F)(F)C(F)(F)C(F)(F)C(F)(F)C(F)(F)F', 'inactive'),
  ('CN(CCO)S(=O)(=O)C(F)(F)C(F)(F)C(F)(F)C(F)(F)C(F)(F)C(F)(F)C(F)(F)C(F)(F)F', 'inactive'),
  ('CN(C)c1ccc(C(=C2C=CC(=[N+](C)C)C=C2)c2ccccc2)cc1', 'active');

* * *

Test: ATG_XTT_Cytotoxicity: Cytotoxicity Assessment in the Attagene TRANS-FACTORIAL HepG2 Assay (AID 2283584)
Records with an inconclusive call do not appear. Activity calls are given as the source filed them. The calls were made as follows: active = hit-call score of the fitted dose curve at least 0.9, where 1 is the maximum; inconclusive = response in the unintended direction; inactive = score below 0.9.
Classes used: active, inactive

INSERT INTO results (compound, category) VALUES
  ('C=C(c1ccc(C(=O)O)cc1)c1cc2c(cc1C)C(C)(C)CCC2(C)C', 'active'),
  ('CCCCCCCCCC=CCC1CC(=O)OC1=O (configuration not stated)', 'inactive'),
  ('COC(=O)CC(C(C)=O)C(=O)OC (configuration not stated)', 'inactive'),
  ('CN(C)CCOC(c1ccccc1)c1ccccc1', 'inactive'),
  ('CC1CCC(CO)CC1 (configuration not stated)', 'inactive'),
  ('CCCCCCCCCCCC(=O)NCCCN(C)C', 'inactive'),
  ('CN(Cc1cnc2nc(N)nc(N)c2n1)c1ccc(C(=O)N[C@@H](CCC(=O)O)C(=O)O)cc1', 'inactive');

* * *

Target: Nuclear receptor subfamily 1 group I member 2 (Homo sapiens) (UniProt O75469)
Sequence (O75469 whole entry, looked up): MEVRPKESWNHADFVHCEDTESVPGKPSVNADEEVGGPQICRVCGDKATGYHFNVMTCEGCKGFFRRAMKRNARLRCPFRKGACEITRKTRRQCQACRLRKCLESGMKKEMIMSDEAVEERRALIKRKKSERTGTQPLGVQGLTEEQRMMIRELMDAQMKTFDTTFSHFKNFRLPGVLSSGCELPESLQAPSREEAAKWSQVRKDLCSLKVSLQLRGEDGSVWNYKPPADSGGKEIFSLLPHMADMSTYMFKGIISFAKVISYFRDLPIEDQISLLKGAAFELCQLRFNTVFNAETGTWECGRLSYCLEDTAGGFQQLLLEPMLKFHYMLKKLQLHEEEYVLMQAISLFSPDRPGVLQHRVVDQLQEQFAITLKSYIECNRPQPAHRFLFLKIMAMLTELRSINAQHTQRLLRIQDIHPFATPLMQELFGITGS
Test: ATG_PXR_TRANS: Attagene TRANS-FACTORIAL HepG2 Assay for human Pregnane X Receptor (PXR) (AID 2283008)
Inconclusive results are not listed. Active and inactive are the calls of the source. Rule for the calls: active = hit-call score of the fitted dose curve at least 0.9, where 1 is the maximum; inconclusive = response in the unintended direction; inactive = score below 0.9.
Classes used: active, inactive

INSERT INTO assay_data (molecule, category) VALUES
  ('Brc1cc(Br)c(Oc2c(Br)cc(Br)c(Br)c2Br)cc1Br', 'inactive'),
  ('CCC(=O)C=Cc1ccc(OC)cc1', 'inactive'),
  ('O=S(=O)(c1ccc(OCc2ccccc2)cc1)c1ccccc1O', 'active'),
  ('CC1=NN(c2ccccc2)C(=O)C1', 'inactive'),
  ('Cc1cc(C(=C2C=CC(=Nc3ccc(S(=O)(=O)O)cc3)C=C2)c2ccc(Nc3ccc(S(=O)(=O)O)cc3)cc2)cc(S(=O)(=O)O)c1N', 'inactive'),
  ('COC(O)c1ccccc1 (configuration not stated)', 'inactive'),
  ('FC(F)=C(F)C(F)(F)C(F)(F)C(F)(F)C(F)F', 'inactive'),
  ('C=CC(=O)OCCC(F)(F)C(F)(F)C(F)(F)C(F)(F)C(F)(F)C(F)(F)C(F)(F)C(F)(F)F', 'inactive'),
  ('Cn1sccc1=O', 'inactive'),
  ('Oc1c(Cl)cc(Cl)cc1Sc1cc(Cl)cc(Cl)c1O', 'active'),
  ('O=CC(F)(F)C(F)(F)C(F)(F)F', 'inactive'),
  ('CCN(CCC#N)c1ccccc1', 'active');
